tested on: MCF7; assay: Cell cycle arrest in human MCF7 cells assessed as S phase accumulation at 2 times GI50 after 24 hrs by flow cytometry
T if Activity is below 20%. F if not; exact matches included in F.

molecule-smiles: CC(C)(C)c1ccc(NC2=NCCO2)cc1
study-system: MCF7
assigned-label: T

molecule-smiles: O=C(CCl)NC(=O)Nc1cccc(OC2CCCCCC2)c1
study-system: MCF7
assigned-label: F

molecule-smiles: O=C(CCl)NC(=O)Nc1ccc(OC2CCCC2)cc1
study-system: MCF7
assigned-label: F

Item O=C(CCl)NC(=O)Nc1ccc(I)cc1 : Activity beneath 20%, strictly? F

Item c1cc(NC2=NCCO2)cc(OC2CCCCCC2)c1 : Activity beneath 20%, strictly? F

Item c1cc(C2CCCCC2)ccc1NC1=NCCO1 : Activity beneath 20%, strictly? T

Item O=C(CCl)NC(=O)Nc1ccc(OC2CCCCCC2)cc1 : Activity beneath 20%, strictly? F

Item c1cc(NC2=NCCO2)cc(OC2CCCC2)c1 : Activity beneath 20%, strictly? T

###

tested on: M21; experiment: Inhibition of nuclear translocation of thioredoxin 1 in human M21 cells at 50 uM after 18 hrs by immunocytochemistry; assay type: functional, cell-based
The source made the active and inactive calls. The rule behind the calls is not given here.
# valid calls are active, inactive; nothing else

Completed entries (count: 4):
molecule-smiles: O=C(NCCCl)Nc1cccc(OCc2ccccc2)c1
study-system: M21
assigned-label: inactive
//
molecule-smiles: O=C(NCCCl)NC1c2ccccc2-c2ccccc21
study-system: M21
assigned-label: active
//
molecule-smiles: c1cc(OC2CCCCC2)ccc1NC1=NCCO1
study-system: M21
assigned-label: active
//
molecule-smiles: O=C(NCCCl)Nc1cccc(OC2CCCC2)c1
study-system: M21
assigned-label: active

Test call, this compound: O=C(NCCCl)Nc1ccc2ccccc2c1 active

Test call, this compound: O=C(NCCCl)Nc1ccc(OC2CCCCC2)cc1 active

###

test system: M21; experiment: Inhibition of nuclear translocation of thioredoxin 1 in human M21 cells at 50 uM after 18 hrs by immunocytochemistry; type: functional, cell-based
Active and inactive are the calls of the source. The rule behind the calls is not given here.
# valid calls are true (1) for active, false (0) for inactive; nothing else

compound: O=C(NCCCl)Nc1ccc(OC2CCCC2)cc1
assigned-label: true (1)

compound: c1ccc(Oc2ccc(NC3=NCCO3)cc2)cc1
assigned-label: false (0)

compound: C1COC(NC2C3CC4CC(C3)CC2C4)=N1 (centres undefined)
assigned-label: true (1)

compound: c1cc(NC2=NCCO2)cc(OC2CCCCC2)c1
assigned-label: true (1)

Test call, this compound: c1cc(NC2=NCCO2)cc(OC2CCCCCC2)c1 true (1)

Test call, this compound: c1cc(OC2CCCC2)ccc1NC1=NCCO1 true (1)

Test call, this compound: c1cc(OC2CCCCCC2)ccc1NC1=NCCO1 true (1)

Test call, this compound: Cc1ccc(NC(=O)NCCCl)cc1 true (1)

Test call, this compound: O=C(NCCCl)NC1C2CC3CC(C2)CC1C3 (centres undefined) false (0)

Test call, this compound: Cc1ccc(NC2=NCCO2)cc1 false (0)

Test call, this compound: O=C(NCCCl)Nc1cccc(Oc2ccccc2)c1 false (0)

Test call, this compound: O=C(NCCCl)Nc1ccc(OCc2ccccc2)cc1 false (0)

Test call, this compound: c1ccc(COc2ccc(NC3=NCCO3)cc2)cc1 true (1)

Test call, this compound: c1cc(NC2=NCCO2)cc(OC2CCCC2)c1 true (1)

###

tested on: M21; assay: Inhibition of nuclear translocation of thioredoxin 1 in human M21 cells at 5 uM after 18 hrs by immunocytochemistry; assay type: functional, cell-based
The source made the active and inactive calls. The calls are words filed in the database; no cut-off is given here.
measured-parameter: Activity

Past entries and their recorded results:
molecule-smiles: CC(C)(C)c1ccc(NC2=NCCO2)cc1
study-system: M21
Activity: inactive
//
molecule-smiles: O=C(CCl)NC(=O)Nc1ccc(OC2CCCCC2)cc1
study-system: M21
Activity: Active
//
molecule-smiles: O=C(CCl)NC(=O)NC1c2ccccc2-c2ccccc21
study-system: M21
Activity: inactive
//
molecule-smiles: c1ccc(COc2cccc(NC3=NCCO3)c2)cc1
study-system: M21
Activity: inactive
//
molecule-smiles: O=C(CCl)NC(=O)Nc1ccc(I)cc1
study-system: M21
Activity: Active

I am curious: what Activity value has been reported for O=C(CCl)NC(=O)Nc1ccc2ccccc2c1 ? inactive

I am curious: what Activity value has been reported for Cc1ccc(NC(=O)NC(=O)CCl)cc1C ? inactive

I am curious: what Activity value has been reported for O=C(CCl)NC(=O)Nc1ccc(Oc2ccccc2)cc1 ? inactive

I am curious: what Activity value has been reported for O=C(CCl)NC(=O)Nc1ccc(OC2CCCC2)cc1 ? Active

I am curious: what Activity value has been reported for O=C(CCl)NC(=O)Nc1ccc(OCc2ccccc2)cc1 ? inactive

###

test system: M21; assay: Growth inhibition of human M21 cells after 48 hrs by sulforhodamine B assay; type: functional
The source made the active and inactive calls. The rule behind the calls is not given here.
measured-parameter: Activity

compound: O=C(NCCCl)NC1C2CC3CC(C2)CC1C3 (stereo unspecified)
Activity: inactive
//
compound: O=C(NCCCl)Nc1ccc(OCc2ccccc2)cc1
Activity: inactive
//
compound: CCNC(=O)Nc1ccc2c(c1)CCC2
Activity: inactive
//
compound: CCNC(=O)Nc1ccc(C2CCCCC2)cc1
Activity: inactive
//
compound: CCNC(=O)Nc1cccc(OC2CCCCCC2)c1
Activity: inactive

I am curious: what Activity value has been reported for CCNC(=O)Nc1ccc(OC2CCCCC2)cc1 ? inactive

###

tested on: M21; experiment: Inhibition of nuclear translocation of thioredoxin 1 in human M21 cells at 50 uM after 18 hrs by immunocytochemistry; type: functional, cell-based
The source made the active and inactive calls. The rule behind the calls is not given here.
# valid calls are active, inactive; nothing else

molecule-smiles: O=C(NCCCl)Nc1ccc(-c2ccccc2)cc1
assigned-label: active

Test call, this compound: O=C(NCCCl)Nc1cccc(OC2CCCCCC2)c1 active

Test call, this compound: CC(C)(C)c1ccc(NC(=O)NCCCl)cc1 inactive

Test call, this compound: c1ccc(-c2ccc(NC3=NCCO3)cc2)cc1 active

Test call, this compound: c1ccc2cc(NC3=NCCO3)ccc2c1 active

Test call, this compound: c1ccc2c(c1)-c1ccccc1C2NC1=NCCO1 active

Test call, this compound: c1ccc(Oc2cccc(NC3=NCCO3)c2)cc1 inactive

###

system: M21; assay: Inhibition of nuclear translocation of thioredoxin 1 in human M21 cells at 25 uM after 18 hrs by immunocytochemistry; type: functional, cell-based
Calls of active or inactive are those of the source. No cut-off for these calls is given here.
# valid calls are yes (active), no (inactive); nothing else

molecule-smiles: O=C(NCCCl)Nc1ccc(Oc2ccccc2)cc1
assigned-label: no

molecule-smiles: Cc1ccc(NC(=O)NCCCl)cc1C
assigned-label: no

Test call, this molecule: c1ccc(Oc2cccc(NC3=NCCO3)c2)cc1 no

Test call, this molecule: c1cc2c(cc1NC1=NCCO1)CCC2 yes

Test call, this molecule: c1ccc(-c2ccc(NC3=NCCO3)cc2)cc1 yes

Test call, this molecule: O=C(NCCCl)Nc1ccc2c(c1)CCC2 yes

Test call, this molecule: O=C(NCCCl)Nc1ccc(-c2ccccc2)cc1 yes

###

tested on: MCF7; assay: Cell cycle arrest in human MCF7 cells assessed as G2/M phase accumulation at 2 times GI50 after 24 hrs by flow cytometry
Each item that follows carries a reported Activity.
Numbers only; they are read as %.

I am curious: what Activity value has been reported for CC(C)(C)c1ccc(NC(=O)NC(=O)CCl)cc1 ? 19

###

system: MCF7; experiment: Cell cycle arrest in human MCF7 cells assessed as S phase accumulation at 2 times GI50 after 24 hrs by flow cytometry
measured-parameter: Activity
Note: a bare number is incomplete; add the unit.

Past entries and their recorded results:
molecule-smiles: c1cc(OC2CCCCC2)ccc1NC1=NCCO1
Activity: 13%
//
molecule-smiles: c1cc(NC2=NCCO2)cc(OC2CCCCC2)c1
Activity: 19%
//
molecule-smiles: Ic1ccc(NC2=NCCO2)cc1
Activity: 10%
//
molecule-smiles: c1cc(OC2CCCCCC2)ccc1NC1=NCCO1
Activity: 14%
//
molecule-smiles: c1cc(OC2CCCC2)ccc1NC1=NCCO1
Activity: 23%
//
molecule-smiles: O=C(CCl)NC(=O)Nc1cccc(OC2CCCC2)c1
Activity: 34%

For the next question, use this compound.
I am curious: what Activity value has been reported for O=C(CCl)NC(=O)Nc1ccc(C2CCCCC2)cc1 ? 51%

###

test system: MCF7; experiment: Cell cycle arrest in human MCF7 cells assessed as S phase accumulation at 2 times GI50 after 24 hrs by flow cytometry
measured-parameter: Activity (%)
Numbers only; they are read as %.

Past entries and their recorded results:
molecule-smiles: CC(C)(C)c1ccc(NC(=O)NC(=O)CCl)cc1
units: %
measurement: 20

molecule-smiles: O=C(CCl)NC(=O)Nc1ccc(OC2CCCCC2)cc1
units: %
measurement: 20

I am curious: what Activity value has been reported for O=C(CCl)NC(=O)Nc1cccc(OC2CCCCC2)c1 ? 20

Data credit: ChEMBL document CHEMBL1155784
